Just for reference, patent US20110086806A1 is where these values come from.

List of Ka values.
Target: T1, recombinant human IL-23R/Fc chimera (R&D Systems) (human, UniProt Q5VWK5 24-355)
T1 construct: Bought; also called rhIL23RFc
T1 sequence (looked up): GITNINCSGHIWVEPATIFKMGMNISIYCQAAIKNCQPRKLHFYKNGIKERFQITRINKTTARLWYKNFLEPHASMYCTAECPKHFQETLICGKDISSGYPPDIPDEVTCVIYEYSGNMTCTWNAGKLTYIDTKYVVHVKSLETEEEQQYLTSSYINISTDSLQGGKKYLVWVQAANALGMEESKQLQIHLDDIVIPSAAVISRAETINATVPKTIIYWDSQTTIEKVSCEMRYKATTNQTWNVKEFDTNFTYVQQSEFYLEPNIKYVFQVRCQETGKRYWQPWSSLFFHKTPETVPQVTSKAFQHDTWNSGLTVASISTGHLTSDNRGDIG
Test: SPR
# unit: M⁻¹ | format: bare number

Some solved cases for reference:
Binder	Ka, M⁻¹
001-87.A4A ATRIMER complex (designed binder, not shown: C-terminal tag: His/Myc (pANA4) or HA-StrepII (pANA10)) EPPTQKPKKIVNAKKDVVNTKMFEELKSRLDTLAQEVALLKEQQALQTVCLKGTKVHMKCFLAFTQTKTFHEASEDCISRGGTLSTPQTGSENDALYEYLRQSVGNEAEIWLGLNWTLAKNLWVDMTGARIAYKNWETEITAQPDGGLFGRGENCAVLSGAANGKWFDKRCRDQLPYICQFGIV	1.24e+08
001-69.3C2 monomeric CTLD (designed binder, C-terminal tag not specified) ALQTVCLKGTKVHMKCFLAFTQTKTFHEASEDCISRGGTLSTPQTGSENDALYEYLRQSVGNEAEIWLGLNTNVTRTLWVDMTGARIAYKNWETEITAQPDGGLGVWGENCAVLSGAANGKWFDKRCRDQLPYICQFGIV	5.39e+06

IN: Entry under review: 056-41.B5C ATRIMER complex (designed binder, non-covalent homotrimer of the one chain given, not shown: Also the single Ser the vector leaves after the ompA signal) EPPTQKPKKIVNAKKDVVNTKMFEELKSRLDTLAQEVALLKEQQALQTVCLKGTKVHMKCFLAFTQTKTFHEASEDCISRGGTLSTPQTGSENDALYEYLRQSVGNEAEIWLGLNGSALTNTWVDMTGARIAYKNWETEITAQPDGGFGYFGENCAVLSGAANGKWFDKRCRDQLPYICQFGIV . Reported Ka?
OUT: 9.78e+08
